# System: E. coli TG1
# protocol summary: static peg (Calgary Biofilm Device) anti-biofilm assay, crystal violet and OD600
# cond: read-out: BIC50; biofilm formation, 37° C.
Here, each record is paired with measured pIC50 data.
The meaning of pIC50 here: minus log10 of the concentration in molar units.

## Task Which measured pIC50 belongs to CC(C)CNc1ncc(-c2ccc(Cl)cc2)[nH]1 , tested on E. coli TG1?
## Result 3.96

Next compound, pIC50 to be filled in.
## Task Field: pIC50 (E. coli TG1). Entry: CCCCNc1ncc(-c2ccc(Br)cc2)[nH]1
## Result 4.07

* * *

# Test system: S. liquefaciens MG44
# protocol summary: static peg (Calgary Biofilm Device) anti-biofilm assay, crystal violet and OD600
# Format: cell-based, Serratia liquefaciens
# cond: planktonic growth, 25° C.; read-out: IC50
quantity measured: IC50 (µM)
Entry rule: numbers only, all in µM.

Sample records with IC50:
## Task # query: IC50 | item CC(C)CNc1ncc(-c2ccc(Cl)cc2)[nH]1 | system: S. liquefaciens MG44
## Result 154

## Task Record CCCCNc1ncc(-c2ccc(Br)cc2)[nH]1 : what is its IC50 with S. liquefaciens MG44?
## Result 118

Others:
## Task Could you share what IC50 was measured for Clc1ccc(-c2cnc(NC3CCCC3)[nH]2)cc1 , tested on S. liquefaciens MG44?
## Result 125

* * *

# Tested on: S. aureus ATCC6538
# protocol summary: static peg (Calgary Biofilm Device) anti-biofilm assay, crystal violet and OD600
# cond: read-out: BIC50; biofilm formation, 37° C.
quantity measured: pIC50
# pIC50 is unitless: minus log10 of the molar concentration; print number only

Solved entries:
## Task Look up pIC50: CCCCCCCCn1c(-c2ccc(Cl)cc2)cnc1N [Compound 2]
## Result 5.55

## Task # input compound: CC(C)CNc1ncc(-c2ccc(Cl)cc2)[nH]1 [Compound 3] ; wanted: its pIC50
## Result 4.02

## Task Entry Clc1ccc(-c2cnc(NC3CCCC3)[nH]2)cc1 [Compound 5] has what pIC50?
## Result 4.46

From here, focus on the item given below.
## Task I have this compound here, Brc1ccc(-c2cnc(NCCn3cc(C4CC4)nn3)[nH]2)cc1 [Compound 6] , and I need its recorded pIC50.
## Result 4.12

* * *

Each item that follows carries a reported IC50.
# Test system: P. aeruginosa PA14
# protocol summary: static peg (Calgary Biofilm Device) anti-biofilm assay, crystal violet and OD600
# cond: read-out: BIC50; biofilm formation, 37° C.

Known results for compounds:
## Task Recall the recorded IC50 for Brc1ccc(-c2cnc(NCCn3cc(C4CC4)nn3)[nH]2)cc1 [Compound 6] with P. aeruginosa PA14 and state it.
## Result > 400 µM

## Task Please state recorded IC50 (tested on P. aeruginosa PA14) of CCCCCCCCn1c(-c2ccc(Cl)cc2)cnc1N [Compound 2]
## Result 118 µM

## Task Item: Clc1ccc(-c2cnc(NC3CCCC3)[nH]2)cc1 [Compound 5] Test system: P. aeruginosa PA14 Read-out: IC50 Value: ?
## Result > 400 µM

## Task What reported IC50 corresponds to CCCCNc1ncc(-c2ccc(Br)cc2)[nH]1 [Compound 4] on P. aeruginosa PA14?
## Result > 400 µM

***
## Task Recall the recorded IC50 for CC(C)CNc1ncc(-c2ccc(Cl)cc2)[nH]1 [Compound 3] with P. aeruginosa PA14 and state it.
## Result > 400 µM

Cited source: patent US10807960B2
